Ref: patent US8802678B2

metric-name: melting point

N#CCC(=O)N[C@H]1CC[C@H](CCN2CCN(c3cc(F)cc(Cl)c3)CC2)CC1 [Example 181]; 181 to 183 °C
Cc1ccc(Cl)cc1N1CCN(CC[C@H]2CC[C@H](NC(=O)CC#N)CC2)CC1 [Example 155]; 171 to 172 °C
O=C(N[C@H]1CC[C@H](CCN2CCN(c3ccccc3F)CC2)CC1)C1CC=CC1 [Example 70]; 204 °C
N#CCC(=O)N[C@H]1CC[C@H](CCN2CCN(c3cccc(C(F)(F)F)c3F)CC2)CC1 [Example 158]; 194 °C
CC(=O)CCC(=O)N[C@H]1CC[C@H](CCN2CCN(c3cc(C(F)(F)F)cc(C(F)(F)F)c3)CC2)CC1 [Example 222]; 172 to 174 °C
COCC(=O)N[C@H]1CC[C@H](CCN2CCN(c3ccccc3F)CC2)CC1 [Example 50]; 143 to 144 °C
